Origin of the recorded values: patent US20250129092A1

Assay: Hepatocytes Clint (Hu)
Assay type: in vitro ADME
Details: human
value-type: hepatocyte CLint (µL/min/1e6 cells)
Write the number in µL/min/1e6 cells without appending the unit.

Supply measured hepatocyte CLint of O=c1[nH]cccc1-c1nc2c(c(OCCc3c[nH]c4ccccc34)n1)OCCN2 in your reply.
7.1

---

Assay: Hepatocytes Clint (m)
Assay type: in vitro ADME
Details: mouse
value-type: hepatocyte CLint (µL/min/1e6 cells)
# number only, unit µL/min/1e6 cells dropped from output

Tell me measured hepatocyte CLint for O=c1[nH]cccc1-c1nc2c(c(OCCc3c[nH]c4ccccc34)n1)OCCN2 [Example 25] please.
115

---

Target: AhR (Homo sapiens, UniProt P35869)
Assay: AhR antagonism in human PBMCs - inhibition of IL-22 release
Format: cell-based
Set-up: endogenous in cells
Settings: human PBMCs activated with CD3/CD28 agonist mixture, 72 hrs, IL-22 ELISA; average; read-out: hPBMC Inhibition of CD3/CD28 induced IL-22 release: av. pIC50 (converted)
IC50 for assorted molecules
Answer format: numeric, nM implied, no suffix.

Check out these entries, answers already filled in.
smiles-input | units-of-measure | IC50
Fc1cc(F)cc(-c2nc3c(c(NCCc4c[nH]c5ccccc45)n2)OCCN3)c1 | nM | 3.98
O=c1[nH]cccc1-c1nc2c(c(NCCc3c[nH]c4cc(F)ccc34)n1)OCCN2 | nM | 1.45

Complete the entry with IC50 for C[C@H]1COc2c(NCCc3c[nH]c4ccccc34)nc(-c3cncc(F)c3)nc2N1
1.05

---

Target: CYP 2C9 (Homo sapiens, UniProt P11712)
Sequence (P11712 whole entry): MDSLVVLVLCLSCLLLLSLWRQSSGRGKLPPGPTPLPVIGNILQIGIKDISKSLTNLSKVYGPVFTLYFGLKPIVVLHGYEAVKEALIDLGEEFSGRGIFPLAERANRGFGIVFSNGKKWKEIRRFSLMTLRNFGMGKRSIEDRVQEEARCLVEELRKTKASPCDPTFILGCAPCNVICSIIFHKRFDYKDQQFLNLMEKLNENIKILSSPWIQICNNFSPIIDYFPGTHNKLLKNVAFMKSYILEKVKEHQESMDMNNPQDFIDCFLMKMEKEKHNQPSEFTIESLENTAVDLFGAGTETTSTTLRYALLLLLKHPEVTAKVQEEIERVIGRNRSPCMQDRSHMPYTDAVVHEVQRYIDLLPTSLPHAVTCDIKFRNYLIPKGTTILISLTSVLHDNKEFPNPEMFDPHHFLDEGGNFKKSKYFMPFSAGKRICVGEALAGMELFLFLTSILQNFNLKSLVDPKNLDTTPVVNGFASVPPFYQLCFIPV
value-type: IC50 (µM)
Dear colleague, please return just the value in µM, with no unit written.

Report its IC50 with CYP 2C9 (Homo sapiens, UniProt P11712) as the test system: O=c1[nH]cccc1-c1nc2c(c(OCCc3c[nH]c4ccccc34)n1)OCCN2
4.7

---

Test: Kinetic solubility
Format: physicochemical
Settings: kinetic from dmso stock
value-type: solubility kinetic (µM)
Field: numeric (µM). Do not append units.

Quote solubility kinetic reported for O=c1[nH]cccc1-c1nc2c(c(OCCc3c[nH]c4ccccc34)n1)OCCN2 [Example 25] please.
119

---

Molecular target: AhR (Homo sapiens)
Sequence (P35869 11-848): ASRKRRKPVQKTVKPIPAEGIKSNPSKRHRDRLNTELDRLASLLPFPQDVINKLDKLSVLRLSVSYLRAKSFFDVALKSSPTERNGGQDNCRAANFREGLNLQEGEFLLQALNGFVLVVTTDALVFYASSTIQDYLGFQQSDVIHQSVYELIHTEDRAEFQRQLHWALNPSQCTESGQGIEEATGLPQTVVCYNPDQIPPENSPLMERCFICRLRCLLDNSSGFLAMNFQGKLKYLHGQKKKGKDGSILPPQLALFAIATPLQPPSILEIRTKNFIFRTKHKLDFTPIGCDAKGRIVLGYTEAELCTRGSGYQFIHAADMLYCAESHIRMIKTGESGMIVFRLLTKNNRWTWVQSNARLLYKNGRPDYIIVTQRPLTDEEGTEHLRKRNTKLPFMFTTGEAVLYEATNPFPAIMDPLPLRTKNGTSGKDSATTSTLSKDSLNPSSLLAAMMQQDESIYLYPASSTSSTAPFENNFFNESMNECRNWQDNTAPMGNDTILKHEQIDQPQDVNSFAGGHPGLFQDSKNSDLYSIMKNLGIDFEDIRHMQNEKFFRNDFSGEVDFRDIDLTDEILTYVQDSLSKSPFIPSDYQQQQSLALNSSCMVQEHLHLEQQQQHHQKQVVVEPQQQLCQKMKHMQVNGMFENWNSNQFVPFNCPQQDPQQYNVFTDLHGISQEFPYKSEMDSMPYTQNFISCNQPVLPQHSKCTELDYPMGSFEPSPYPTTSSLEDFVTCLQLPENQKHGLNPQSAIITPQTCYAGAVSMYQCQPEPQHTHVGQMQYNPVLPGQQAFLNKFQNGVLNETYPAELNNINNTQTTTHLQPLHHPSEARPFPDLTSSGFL
Experiment: AhR antagonism in human PBMCs - inhibition of IL-22 release
Assay type: cell-based
Design: endogenous in cells
Settings: human PBMCs activated with CD3/CD28 agonist mixture, 72 hrs, IL-22 ELISA; average; read-out: hPBMC Inhibition of CD3/CD28 induced IL-22 release: av. pIC50 (converted)
Listed here: items and their measured IC50.

Example results:
molecule | value-type | value-reported
C[C@@H]1COc2c(NCCc3c[nH]c4ccccc34)nc(-c3cncc(F)c3)nc2N1 [Example 9] | IC50 | 0.661 nM
Fc1ccc(-c2nc3c(c(NCCc4c[nH]c5ccccc45)n2)OCCN3)cc1 [Example 2] | IC50 | 56.2 nM
Cc1ncc(-c2nc(N[C@@H]3CCc4[nH]c5ccccc5c4C3)c3c(n2)N(CCN(C)C)[C@H](CO)CO3)s1 [Example 36] | IC50 | 1070 nM
Cc1ncc(-c2nc(NCCc3c[nH]c4ccccc34)c3c(n2)N(C2COC2)CCO3)s1 [Example 33] | IC50 | 13.5 nM
O=c1[nH]cccc1-c1nc(NCCc2c[nH]c3ccccc23)c2c(n1)N[C@H](CO)CO2 [Example 27] | IC50 | 2.14 nM
COC[C@@H]1COc2c(NCCc3c[nH]c4ccccc34)nc(-c3ccc[nH]c3=O)nc2N1 [Example 26] | IC50 | 0.724 nM
COC[C@H]1COc2c(NCCc3c[nH]c4ccccc34)nc(-c3ccc[nH]c3=O)nc2N1 [Example 45] | IC50 | < 1.02 nM
COC[C@@H]1COc2c(nc(-c3cnc(C)s3)nc2N[C@@H]2CCc3[nH]c4ccccc4c3C2)N1 [Example 53] | IC50 | 759 nM

Using known records, supply IC50 for CN1CCOc2c(NCCc3c[nH]c4ccccc34)nc(-c3ccc[nH]c3=O)nc21 [Example 44]
< 1.55 nM

Return the recorded IC50 value; entry: Cc1ncc(-c2nc3c(c(OCCc4c[nH]c5cc(F)ccc45)n2)OCCN3)s1 [Example 24]
2.88 nM

---

Biological target: AhR (Homo sapiens)
Assay: AhR antagonism in U937 cells (Promega P450-Glo assay)
Assay type: cell-based
Parameters: endogenous in cells; host or cells: U937 cells
Settings: CYP1A1 activity readout (Luciferin-CEE), head names VAF347, average, read-out: U937 Antagonist pIC50-VAF347: av. pIC50 (converted)
Method: In Vitro Assay 1: AhR Antagonism in U937 Cells (Promega P450-Glo™ Assay) AhR antagonism was assessed in LJ937 cells (myeloid lineage cell line derived from a human histiocytic lymphoma). Ligand binds the AhR in the cytoplasm, and the AhR-ligand complex translocates to the nucleus and forms a heterodimer with AhR nuclear translocator (Arnt). […] CYP1A1 activity is subsequently determined by assessing the conversion of Luciferin-CEE to luciferin, which in turn reacts with luciferase to produce light. […]
value-type: IC50 (µM)
Quick reminder: number only, in µM, skip the unit.

Here's what some known entries look like.
molecule | test-target | IC50 [µM]
COC[C@@H]1COc2c(NCCc3c[nH]c4ccccc34)nc(-c3cc(F)cc(F)c3)nc2N1 | AhR (Homo sapiens) | 0.00339
O=c1ccc(-c2nc3c(c(NCCc4c[nH]c5ccccc45)n2)OCCN3)c[nH]1 | AhR (Homo sapiens) | 0.447
c1ccc2c3c([nH]c2c1)CC[C@@H](Nc1nc(-c2nccs2)nc2c1OCCN2)C3 | AhR (Homo sapiens) | 0.229
COc1ncccc1-c1nc2c(c(NCCc3c[nH]c4ccccc34)n1)OCCN2 | AhR (Homo sapiens) | 0.0617
Cc1ncc(-c2nc3c(c(N[C@@H]4CCc5[nH]c6ccccc6c5C4)n2)OCC(CN(C)C)N3)s1 (mixture of isomers) | AhR (Homo sapiens) | 0.0661

--- query ---
Give recorded IC50. COC[C@@H]1COc2c(nc(-c3ccc[nH]c3=O)nc2OCCc2c[nH]c3ccccc23)N1
0.00437

---

Item-by-item account of IC50
Target: AhR (Homo sapiens)
Assay: AhR antagonism in human PBMCs - inhibition of IL-22 release
Format: cell-based
Design: endogenous in cells
Conditions: human PBMCs activated with CD3/CD28 agonist mixture, 72 hrs, IL-22 ELISA; average; read-out: hPBMC Inhibition of CD3/CD28 induced IL-22 release: av. pIC50 (converted)
Lab book: enter the figure in nM, no units written.

Field: example entries. Status: answers known.
compound | test-target | value-reported
Cc1ncc(-c2nc3c(c(N[C@@H]4CCc5[nH]c6ccccc6c5C4)n2)OCC(CN(C)C)N3)s1 (mixture of isomers) | AhR (Homo sapiens) | 89.1
O=c1[nH]cccc1-c1nc2c(c(N[C@@H]3CCc4[nH]c5ccccc5c4C3)n1)OCCN2 | AhR (Homo sapiens) | 158

Now look at this one.
Kindly indicate its recorded IC50. Item: Fc1cccc(-c2nc3c(c(NCCc4c[nH]c5ccccc45)n2)OCCN3)c1
22.4
